Biological target: Replication protein A 70 kDa DNA-binding subunit (Homo sapiens, UniProt P27694)
Sequence (P27694 whole entry): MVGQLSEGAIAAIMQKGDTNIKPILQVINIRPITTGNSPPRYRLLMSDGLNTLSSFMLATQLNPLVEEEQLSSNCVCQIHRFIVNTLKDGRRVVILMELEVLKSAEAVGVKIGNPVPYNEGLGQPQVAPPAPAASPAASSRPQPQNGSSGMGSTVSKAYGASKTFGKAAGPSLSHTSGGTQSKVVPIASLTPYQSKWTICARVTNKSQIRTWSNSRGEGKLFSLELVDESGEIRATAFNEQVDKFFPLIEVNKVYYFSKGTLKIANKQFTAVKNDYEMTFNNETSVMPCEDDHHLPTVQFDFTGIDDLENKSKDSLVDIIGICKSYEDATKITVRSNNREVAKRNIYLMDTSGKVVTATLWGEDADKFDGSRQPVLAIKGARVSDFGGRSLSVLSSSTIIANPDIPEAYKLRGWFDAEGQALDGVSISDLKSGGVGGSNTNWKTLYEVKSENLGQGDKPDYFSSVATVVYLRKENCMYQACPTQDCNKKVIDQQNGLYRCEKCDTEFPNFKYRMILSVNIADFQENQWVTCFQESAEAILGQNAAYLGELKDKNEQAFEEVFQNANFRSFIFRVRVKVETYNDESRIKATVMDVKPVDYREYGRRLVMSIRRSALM
Assay: Binding affinity to RPA70N (1 to 120) site2 (unknown origin) expressed in Escherichia coli BL21-DE3 cells by NMR spectroscopy
pKd: −log10 of the molar value.
measured-property: pKd

INSERT INTO results (entry_smiles, target_or_test_system, experimental_result) VALUES
  ('O=C(O)c1cc(-c2ccc(F)cc2)n[nH]1', 'Replication protein A 70 kDa DNA-binding subunit (Homo sapiens, UniProt P27694)', 2.95),
  ('CCc1c(O)[nH]c2nc3ccccc3n2c1=O', 'Replication protein A 70 kDa DNA-binding subunit (Homo sapiens, UniProt P27694)', 2.79),
  ('O=C(O)c1ccc(-c2ccc(F)c(Cl)c2)o1', 'Replication protein A 70 kDa DNA-binding subunit (Homo sapiens, UniProt P27694)', 2.85);
